I'd be grateful if you could share measured hepatocyte CLint at 1 µM for these entries.
- EXPERIMENTAL_PROTOCOL: Intrinsic clearance in rat hepatocyte measured per 10^6 cells at 1 uM incubated upto 90 mins by LC-MS/MS analysis
- Type: ADME, cell-based
- STUDY_CONDITIONS: rat hepatocytes, read-out: CLH

The molecule listed as CC(C)(Nc1ccc(Cl)c(S(=O)(=O)N2CCOCC2)c1)C(=O)Nc1cncc(Cl)c1 shows hepatocyte CLint at 1 µM equal to 68 µL/min/1e6 cells

The molecule listed as O=C(CNc1ccc(Cl)c(S(=O)(=O)N2CCOCC2)c1)Nc1ccc(F)c(Cl)c1 shows hepatocyte CLint at 1 µM equal to > 92 µL/min/1e6 cells

The molecule listed as C[C@H](Nc1ccc(Cl)c(S(=O)(=O)N2CCOCC2)c1)C(=O)Nc1cncc(Cl)c1 shows hepatocyte CLint at 1 µM equal to 50 µL/min/1e6 cells

The molecule listed as C[C@H](Nc1ccc(Cl)c(S(=O)(=O)N2CCOCC2)c1)C(=O)Nc1ccc(F)c(Cl)c1 shows hepatocyte CLint at 1 µM equal to > 92 µL/min/1e6 cells

The molecule listed as CC(C)(Nc1ccc(Cl)c(S(=O)(=O)N2CCOCC2)c1)C(=O)Nc1ccc(F)c(Cl)c1 shows hepatocyte CLint at 1 µM equal to > 92 µL/min/1e6 cells

###

- EXPERIMENTAL_PROTOCOL: Apparent half life in Swiss mouse at 50 mg/kg,po administration measured for 4 to 24 hrs by LC-MS/MS analysis
- Format: ADME, organism-based
- STUDY_CONDITIONS: in vivo, time 4-24 hrs, read-out: t1/2(app) (converted)
ASSAY_ENDPOINT: half-life (h)
Give a bare numeral; the unit h is implied.

The compound listed as CC(C)(Nc1ccc(Cl)c(S(=O)(=O)N2CCOCC2)c1)C(=O)Nc1cncc(Cl)c1 shows half-life equal to 5.9

###

- System: Plasmodium falciparum
- EXPERIMENTAL_PROTOCOL: Antimalarial activity against KAF-156 resistant Plasmodium falciparum Dd2 harboring CARL I1139K mutant assessed as reduction in parasite growth incubated for 72 hrs by [3H]-hypoxanthine incorporation assay
- Assay type: functional, organism-based
I'd be grateful if you could share measured EC50 for these entries.
Include the unit right after the number.

Per the reported Plasmodium falciparum data, O=C(CNc1ccc(Cl)c(S(=O)(=O)N2CCOCC2)c1)Nc1ccc(F)c(Cl)c1 has EC50 of 26 nM

Per the reported Plasmodium falciparum data, CC(C)(Nc1ccc(Cl)c(S(=O)(=O)N2CCOCC2)c1)C(=O)Nc1ccc(F)c(Cl)c1 has EC50 of 1 nM

Per the reported Plasmodium falciparum data, CC1(C)c2nc(-c3ccc(F)cc3)c(Nc3ccc(F)cc3)n2CCN1C(=O)CN [GANAPLACIDE] has EC50 of 1530 nM

###

- System: Plasmodium falciparum
- EXPERIMENTAL_PROTOCOL: Binding affinity to recombinant Plasmodium falciparum START1 assessed as change in enthalpy at 10 uM by isothermal titration calorimetry
ASSAY_ENDPOINT: deltaH (kcal/mol)
Give a bare numeral; the unit kcal/mol is implied.

The compound listed as C[C@@H](Nc1ccc(Cl)c(S(=O)(=O)N2CCOCC2)c1)C(=O)Nc1ccc(F)c(Cl)c1 shows deltaH equal to -16.1

The compound listed as CC(C)(Nc1ccc(Cl)c(S(=O)(=O)N2CCOCC2)c1)C(=O)Nc1cncc(Cl)c1 shows deltaH equal to -11.6

The compound listed as C[C@H](Nc1ccc(Cl)c(S(=O)(=O)N2CCOCC2)c1)C(=O)Nc1cncc(Cl)c1 shows deltaH equal to -14.4

The compound listed as C[C@H](Nc1ccc(Cl)c(S(=O)(=O)N2CCOCC2)c1)C(=O)Nc1ccc(F)c(Cl)c1 shows deltaH equal to -17.7
